Source: the supplement of paper PMC10307832

# Test system: HCC-44
# measurement-notes: relative viability (nuclei count vs DMSO), 5 days (fraction); higher = more cells survive
# setup-conditions: first compound 8 µM
measure: relative viability
Numbers only.

A selection of reference data follows.
{"compound": "O=c1cc(-c2cccc3c2Sc2ccccc2S3)oc(N2CCOCC2)c1 + O=C(CCCCCCC(=O)Nc1ccccc1)NO [Vorinostat] (partner 1 µM)", "quantitative-result": 1.08}
{"compound": "O=c1cc(-c2cccc3c2Sc2ccccc2S3)oc(N2CCOCC2)c1 + CC(=O)Nc1cccc(-n2c(=O)n(C3CC3)c(=O)c3c(Nc4ccc(I)cc4F)n(C)c(=O)c(C)c32)c1 [Trametinib] (partner 0.02 µM)", "quantitative-result": 1.07}
{"compound": "O=c1cc(-c2cccc3c2Sc2ccccc2S3)oc(N2CCOCC2)c1 + CS(=O)(=O)CCNCc1ccc(-c2ccc3ncnc(Nc4ccc(OCc5cccc(F)c5)c(Cl)c4)c3c2)o1 [Lapatinib] (partner 2 µM)", "quantitative-result": 1.14}
{"compound": "O=c1cc(-c2cccc3c2Sc2ccccc2S3)oc(N2CCOCC2)c1 + O=C(c1cc(Cc2n[nH]c(=O)c3ccccc23)ccc1F)N1CCN(C(=O)C2CC2)CC1 [Olaparib] (partner 8 µM)", "quantitative-result": 0.951}
{"compound": "O=c1cc(-c2cccc3c2Sc2ccccc2S3)oc(N2CCOCC2)c1 + NC(=O)Nc1cc(-c2cccc(F)c2)sc1C(=O)N[C@H]1CCCNC1 [AZD7762] (partner 0.2 µM)", "quantitative-result": 0.986}
{"compound": "O=c1cc(-c2cccc3c2Sc2ccccc2S3)oc(N2CCOCC2)c1 + C[C@]1(O)C[C@@H](c2nc(-c3ccc4ccc(-c5ccccc5)nc4c3)c3c(N)nccn32)C1 [Linsitinib] (partner 1 µM)", "quantitative-result": 0.548}
{"compound": "O=c1cc(-c2cccc3c2Sc2ccccc2S3)oc(N2CCOCC2)c1 + Cc1nc(NC(=O)N2CCC[C@H]2C(N)=O)sc1-c1ccnc(C(C)(C)C(F)(F)F)c1 [Alpelisib] (partner 2 µM)", "quantitative-result": 0.753}
{"compound": "O=c1cc(-c2cccc3c2Sc2ccccc2S3)oc(N2CCOCC2)c1 + Cc1cc(Nc2cc(N3CCN(C)CC3)nc(Sc3ccc(NC(=O)C4CC4)cc3)n2)n[nH]1 [Tozasertib] (partner 0.1 µM)", "quantitative-result": 0.54}

Next compound, please.
## Input Fill blank: measured relative viability of the compound O=c1cc(-c2cccc3c2Sc2ccccc2S3)oc(N2CCOCC2)c1 + COc1cccc2cc(-c3nc([C@H]4CC[C@H](C(=O)O)CC4)n4ncnc(N)c34)[nH]c12 [OSI-027] (partner 0.5 µM) is ____.
## Output 0.499

---

# Test system: NCI-H1437
# measurement-notes: relative viability (nuclei count vs DMSO), 5 days (fraction); higher = more cells survive
# setup-conditions: first compound 0.03162 µM
Exercise: for every item that follows, state its recorded relative viability.
One number for each entry.

{"compound": "CCN(CC)CCCCNc1ncc2cc(-c3cc(OC)cc(OC)c3)c(NC(=O)NC(C)(C)C)nc2n1 + CC(=O)c1c(C)c2cnc(Nc3ccc(N4CCNCC4)cn3)nc2n(C2CCCC2)c1=O [Palbociclib] (partner 0.5 µM)", "quantitative-result": 0.331}

Below: the item to evaluate.
## Input Data request, read-out relative viability, for CCN(CC)CCCCNc1ncc2cc(-c3cc(OC)cc(OC)c3)c(NC(=O)NC(C)(C)C)nc2n1 + CS(=O)(=O)CCNCc1ccc(-c2ccc3ncnc(Nc4ccc(OCc5cccc(F)c5)c(Cl)c4)c3c2)o1 [Lapatinib] (partner 2 µM)
## Output 0.841

---

# Tested on: NCI-H1793
# measurement-notes: relative viability (nuclei count vs DMSO), 5 days (fraction); higher = more cells survive
# setup-conditions: first compound 0.6325 µM
Lab note: cut-off is 0.7. Strictly less in relative viability is class 1. Exactly 0.7 or more is class 0.

{"molecule": "COCC1(CO)C(=O)C2CCN1CC2 (stereo unspecified) [PRIMA-1MET] + NC(=O)Nc1cc(-c2cccc(F)c2)sc1C(=O)N[C@H]1CCCNC1 [AZD7762] (partner 0.2 µM)", "target-or-test-system": "NCI-H1793", "label": "class 1"}
{"molecule": "COCC1(CO)C(=O)C2CCN1CC2 (stereo unspecified) [PRIMA-1MET] + Cc1nc(NC(=O)N2CCC[C@H]2C(N)=O)sc1-c1ccnc(C(C)(C)C(F)(F)F)c1 [Alpelisib] (partner 2 µM)", "target-or-test-system": "NCI-H1793", "label": "class 1"}
{"molecule": "COCC1(CO)C(=O)C2CCN1CC2 (stereo unspecified) [PRIMA-1MET] + O=C(c1cc(Cc2n[nH]c(=O)c3ccccc23)ccc1F)N1CCN(C(=O)C2CC2)CC1 [Olaparib] (partner 8 µM)", "target-or-test-system": "NCI-H1793", "label": "class 0"}
{"molecule": "COCC1(CO)C(=O)C2CCN1CC2 (stereo unspecified) [PRIMA-1MET] + CC(=O)c1c(C)c2cnc(Nc3ccc(N4CCNCC4)cn3)nc2n(C2CCCC2)c1=O [Palbociclib] (partner 0.5 µM)", "target-or-test-system": "NCI-H1793", "label": "class 1"}
{"molecule": "COCC1(CO)C(=O)C2CCN1CC2 (stereo unspecified) [PRIMA-1MET] + Nc1nc2[nH]cc(CCc3ccc(C(=O)N[C@@H](CCC(=O)O)C(=O)O)cc3)c2c(=O)[nH]1 [Pemetrexed] (partner 0.2 µM)", "target-or-test-system": "NCI-H1793", "label": "class 0"}

Consider now this further molecule.
## Input Here's an entry: COCC1(CO)C(=O)C2CCN1CC2 (stereo unspecified) [PRIMA-1MET] + Nc1ncn([C@H]2C[C@H](O)[C@@H](CO)O2)c(=O)n1 [Decitabine] (partner 2 µM) . Is its relative viability below 0.7?
## Output class 1

---

# System: NCI-H2228
# measurement-notes: relative viability (nuclei count vs DMSO), 5 days (fraction); higher = more cells survive
# setup-conditions: first compound 6.325 µM
# class 1 = relative viability below 0.5 (exclusive); class 0 = relative viability at/above 0.5

The following compounds have reported results that may help.
{"compound": "COCC1(CO)C(=O)C2CCN1CC2 (stereo not given) [PRIMA-1MET] + O=C(c1cc(Cc2n[nH]c(=O)c3ccccc23)ccc1F)N1CCN(C(=O)C2CC2)CC1 [Olaparib] (partner 8 µM)", "target-or-test-system": "NCI-H2228", "label": "class 0"}
{"compound": "COCC1(CO)C(=O)C2CCN1CC2 (stereo not given) [PRIMA-1MET] + Cc1nc(NC(=O)N2CCC[C@H]2C(N)=O)sc1-c1ccnc(C(C)(C)C(F)(F)F)c1 [Alpelisib] (partner 2 µM)", "target-or-test-system": "NCI-H2228", "label": "class 0"}
{"compound": "COCC1(CO)C(=O)C2CCN1CC2 (stereo not given) [PRIMA-1MET] + CS(=O)(=O)CCNCc1ccc(-c2ccc3ncnc(Nc4ccc(OCc5cccc(F)c5)c(Cl)c4)c3c2)o1 [Lapatinib] (partner 2 µM)", "target-or-test-system": "NCI-H2228", "label": "class 0"}
{"compound": "COCC1(CO)C(=O)C2CCN1CC2 (stereo not given) [PRIMA-1MET] + N=C(N)NC(=N)NCCc1ccccc1 [Phenformin] (partner 250 µM)", "target-or-test-system": "NCI-H2228", "label": "class 1"}

# ---- query compound ----
## Input Is 0.5 strictly greater than the compound's reported relative viability? compound: COCC1(CO)C(=O)C2CCN1CC2 (stereo not given) [PRIMA-1MET] + O=C(CCCCCCC(=O)Nc1ccccc1)NO [Vorinostat] (partner 1 µM)
## Output class 0

---

# System: NCI-H520
# measurement-notes: relative viability (nuclei count vs DMSO), 5 days (fraction); higher = more cells survive
# setup-conditions: first compound 20 µM
Field: relative viability. Provide a value for each of the compounds that follow.

{"compound": "COCC1(CO)C(=O)C2CCN1CC2 (stereo not given) [PRIMA-1MET] + CCNC(=O)c1noc(-c2cc(C(C)C)c(O)cc2O)c1-c1ccc(CN2CCOCC2)cc1 [Luminespib] (partner 0.01 µM)", "relative viability": 0.203}

Dear colleague, could you please provide relative viability for the compounds listed below?
1. COCC1(CO)C(=O)C2CCN1CC2 (stereo not given) [PRIMA-1MET] + COc1cc2c(Oc3ccc(NC(=O)C4(C(=O)Nc5ccc(F)cc5)CC4)cc3F)ccnc2cc1OCCCN1CCOCC1 [Foretinib] (partner 0.25 µM)
2. COCC1(CO)C(=O)C2CCN1CC2 (stereo not given) [PRIMA-1MET] + CC(C)C[C@H](NC(=O)[C@H](Cc1ccccc1)NC(=O)c1cnccn1)B(O)O [Bortezomib] (partner 0.002 µM)

## Output
1: 0.0989; 2: 0.113

Hey, quick one: what's relative viability for each of these?
1. COCC1(CO)C(=O)C2CCN1CC2 (stereo not given) [PRIMA-1MET] + CS(=O)(=O)CCNCc1ccc(-c2ccc3ncnc(Nc4ccc(OCc5cccc(F)c5)c(Cl)c4)c3c2)o1 [Lapatinib] (partner 2 µM)
2. COCC1(CO)C(=O)C2CCN1CC2 (stereo not given) [PRIMA-1MET] + Nc1nc2[nH]cc(CCc3ccc(C(=O)N[C@@H](CCC(=O)O)C(=O)O)cc3)c2c(=O)[nH]1 [Pemetrexed] (partner 0.2 µM)

## Output
[0.0834, 0.421]
